assay_target: Urotensin-2 receptor (Homo sapiens) (UniProt Q9UKP6)
Sequence (whole entry): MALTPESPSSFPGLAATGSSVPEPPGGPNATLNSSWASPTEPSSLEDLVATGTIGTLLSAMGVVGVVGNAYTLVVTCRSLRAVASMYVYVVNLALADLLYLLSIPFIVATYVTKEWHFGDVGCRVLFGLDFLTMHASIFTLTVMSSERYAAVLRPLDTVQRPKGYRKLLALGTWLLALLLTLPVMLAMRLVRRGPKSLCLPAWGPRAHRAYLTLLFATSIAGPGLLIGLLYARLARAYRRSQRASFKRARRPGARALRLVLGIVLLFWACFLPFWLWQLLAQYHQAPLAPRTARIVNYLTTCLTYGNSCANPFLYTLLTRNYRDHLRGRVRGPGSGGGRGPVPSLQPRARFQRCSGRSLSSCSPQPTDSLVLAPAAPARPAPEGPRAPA
assay_info: Activity against human urotensin-2 receptor expressed in NIH3T3 cells
Format: cell-based
Reported Efficacy values follow for various compounds
Use % as the unit, but write only the number.

Worked set:
compound: Cc1cc(C)c(C(=O)OC(CCN(C)C)c2ccc(Cl)cc2)cc1C (stereo unspecified)
observable: Efficacy
readout_number: 60
//
compound: CN(C)CCC(OC(=O)Nc1ccc2ccccc2c1)c1ccc(Cl)cc1 (stereo unspecified)
observable: Efficacy
readout_number: 89
//
compound: CO[C@@H](C(=O)N[C@@H](CCN(C)C)c1ccc(Cl)cc1)c1ccccc1
observable: Efficacy
readout_number: 165
//
compound: Cc1ccc(S(=O)(=O)NC(CCN(C)C)c2ccc(Cl)cc2)cc1 (stereo unspecified)
observable: Efficacy
readout_number: 74
//
compound: Cc1ccc(C)c(C(=O)OC(CCN(C)C)c2ccc(Cl)cc2)c1 (stereo unspecified)
observable: Efficacy
readout_number: 86
//
compound: CN(C)CCC(NC(=O)Nc1ccc2ccccc2c1)c1ccc(Cl)cc1 (stereo unspecified)
observable: Efficacy
readout_number: 106
//
compound: CN(C)CCC(NC(=O)c1ccc(Oc2ccccc2)cc1)c1ccc(Cl)cc1 (stereo unspecified)
observable: Efficacy
readout_number: 89
//
compound: CN(C)CCC(NC(=O)NCc1ccccc1)c1ccc(Cl)cc1 (stereo unspecified)
observable: Efficacy
readout_number: 179
//
compound: CN(C)CCC(OC(=O)c1ccc(-c2ccccc2)cc1)c1ccc(Cl)cc1 (stereo unspecified)
observable: Efficacy
readout_number: 53
//
compound: COc1cccc(C(=O)OC(CCN(C)C)c2ccc(Cl)cc2)c1C (stereo unspecified)
observable: Efficacy
readout_number: 88

Request the reported Efficacy associated with CN(C)CCC(NC(=O)Nc1ccc(Oc2ccccc2)cc1)c1ccc(Cl)cc1 (stereo unspecified)
108

Would you kindly share the measured Efficacy for Cc1ccccc1C(=O)OC(CCN(C)C)c1ccc(Cl)cc1 (stereo unspecified) ?
126

Any idea what its Efficacy is? The compound is CN(C)CCC(NC(=O)Nc1ccc(C(F)(F)F)cc1)c1ccc(Cl)cc1 (stereo unspecified)
105

Request the reported Efficacy associated with Cc1cc(Br)ccc1C(=O)OC(CCN(C)C)c1ccc(Cl)cc1 (stereo unspecified)
95

Would you kindly share the measured Efficacy for CN(C)CCC(NC(=O)Nc1ccc(C(C)(C)C)cc1)c1ccc(Cl)cc1 (stereo unspecified) ?
103

What value of measured Efficacy is listed for Cc1ccsc1C(=O)OC(CCN(C)C)c1ccc(Cl)cc1 (stereo unspecified) ?
119

Fill in the blank: the reported Efficacy of CN(C)CCC(OC(=O)c1ccc(C(F)(F)F)cc1)c1ccc(Cl)cc1 (stereo unspecified) is ____.
47

Request the reported Efficacy associated with Cc1ccc(C(=O)NC(CCN(C)C)c2ccc(Cl)cc2)c(C)c1 (stereo unspecified)
147

What Efficacy value was documented for this compound, Cc1ccccc1C(=O)NC(CCN(C)C)c1ccc(Cl)cc1 (stereo unspecified) ?
175

# lookup: Efficacy of Cc1c(Cl)cccc1C(=O)OC(CCN(C)C)c1ccc(Cl)cc1 (stereo unspecified)
118

====

assay_target: Urotensin-2 receptor (Homo sapiens) (UniProt Q9UKP6)
assay_info: Activity against human urotensin-2 receptor expressed in NIH3T3 cells
Assay type: cell-based
observable: Efficacy

// known answers, use as guide
molecule: COc1ccc(C(=O)OC(CCN(C)C)c2ccc(Cl)cc2)cc1 (stereo not drawn)
observable: Efficacy
result: 84%
//
molecule: Cc1cc2c(cc1C)C(=O)OC(CCN(C)C)(c1ccc(Cl)cc1)C2 (stereo not drawn)
observable: Efficacy
result: 146%

Consider the additional molecule presented here.
Identify the measured Efficacy of CN(C)CCC(OC(=O)NCc1ccccc1)c1ccc(Cl)cc1 (stereo not drawn) for Urotensin-2 receptor (Homo sapiens) (UniProt Q9UKP6).
180%

====

Below, each of the molecules is paired with its reported pEC50 value.
assay_target: Urotensin-2 receptor (Homo sapiens, UniProt Q9UKP6)
assay_info: Activity against human urotensin-2 receptor expressed in NIH3T3 cells
Bear in mind: pEC50 is minus log10 of a mol/L concentration; give just that figure.

molecule: COc1cccc(C(=O)OC(CCN(C)C)c2ccc(Cl)cc2)c1C (stereo not drawn)
pEC50: 5.71

molecule: COc1ccc(C(=O)OC(CCN(C)C)c2ccc(Cl)cc2)cc1 (stereo not drawn)
pEC50: 5.66

Shifting focus to the molecule that follows.
Returns the measured pEC50 for the input molecule. Input: COc1ccc(NC(=O)NC(CCN(C)C)c2ccc(Cl)cc2)cc1 (stereo not drawn)
5.70

====

assay_target: UniProt:Q9UKP6
Sequence (whole entry): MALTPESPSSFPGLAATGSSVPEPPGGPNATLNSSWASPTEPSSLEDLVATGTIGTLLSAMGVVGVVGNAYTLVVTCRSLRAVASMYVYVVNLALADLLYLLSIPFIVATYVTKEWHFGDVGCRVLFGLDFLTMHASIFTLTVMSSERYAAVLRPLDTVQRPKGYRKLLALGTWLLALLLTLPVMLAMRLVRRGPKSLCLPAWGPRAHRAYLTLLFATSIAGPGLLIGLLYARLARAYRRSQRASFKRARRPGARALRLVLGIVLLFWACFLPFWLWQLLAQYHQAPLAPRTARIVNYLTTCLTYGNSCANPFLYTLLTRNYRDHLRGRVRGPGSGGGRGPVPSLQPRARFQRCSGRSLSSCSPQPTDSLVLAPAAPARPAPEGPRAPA
assay_info: Activity against human urotensin-2 receptor expressed in NIH3T3 cells
Type: cell-based
Measured Efficacy by item
API: value field is a number in %; no unit string.

Examples with their reported Efficacy follow.
compound: CN(C)CCC(OC(=O)Nc1ccc(C(F)(F)F)cc1)c1ccc(Cl)cc1 (stereo unspecified)
Efficacy / %: 94
--
compound: CO[C@@H](C(=O)N[C@H](CCN(C)C)c1ccc(Cl)cc1)c1ccccc1
Efficacy / %: 112
--
compound: Cc1c(Cl)cccc1C(=O)NC(CCN(C)C)c1ccc(Cl)cc1 (stereo unspecified)
Efficacy / %: 142
--
compound: Cc1ccc(C)c(C(=O)NC(CCN(C)C)c2ccc(Cl)cc2)c1 (stereo unspecified)
Efficacy / %: 164
--
compound: Cc1cccc(C(=O)NC(CCN(C)C)c2ccc(Cl)cc2)c1C (stereo unspecified)
Efficacy / %: 159
--
compound: CN(C)CCC(OC(=O)Nc1ccc(Oc2ccccc2)cc1)c1ccc(Cl)cc1 (stereo unspecified)
Efficacy / %: 107
--
compound: CN(C)CCC(OC(=O)Nc1ccc(C(C)(C)C)cc1)c1ccc(Cl)cc1 (stereo unspecified)
Efficacy / %: 105
--
compound: CCc1ccccc1C(=O)OC(CCN(C)C)c1ccc(Cl)cc1 (stereo unspecified)
Efficacy / %: 128

Find the recorded Efficacy belonging to COc1ccc(C(=O)NC(CCN(C)C)c2ccc(Cl)cc2)cc1 (stereo unspecified) and report it.
162

====

assay_target: Urotensin-2 receptor (Homo sapiens) (UniProt Q9UKP6)
assay_info: Activity against human urotensin-2 receptor expressed in NIH3T3 cells
Format: cell-based
observable: Efficacy (%)
Report the value in % with no unit label.

# example entries with known answers
compound: CN(C)CC[C@H](NC(=O)c1ccc(-c2ccccc2)cc1)c1ccc(Cl)cc1
observable: Efficacy
readout_number: 116
--
compound: CN(C)CCC(NC(=O)c1ccc(C(F)(F)F)cc1)c1ccc(Cl)cc1 (configuration not stated)
observable: Efficacy
readout_number: 115
--
compound: CN(C)CCC(OC(=O)c1cn(C)c2ccccc12)c1ccc(Cl)cc1 (configuration not stated)
observable: Efficacy
readout_number: 104

// Efficacy lookup, key: COc1ccc(NC(=O)OC(CCN(C)C)c2ccc(Cl)cc2)cc1 (configuration not stated)
170

====

assay_target: UniProt Q9UKP6
Sequence (whole entry): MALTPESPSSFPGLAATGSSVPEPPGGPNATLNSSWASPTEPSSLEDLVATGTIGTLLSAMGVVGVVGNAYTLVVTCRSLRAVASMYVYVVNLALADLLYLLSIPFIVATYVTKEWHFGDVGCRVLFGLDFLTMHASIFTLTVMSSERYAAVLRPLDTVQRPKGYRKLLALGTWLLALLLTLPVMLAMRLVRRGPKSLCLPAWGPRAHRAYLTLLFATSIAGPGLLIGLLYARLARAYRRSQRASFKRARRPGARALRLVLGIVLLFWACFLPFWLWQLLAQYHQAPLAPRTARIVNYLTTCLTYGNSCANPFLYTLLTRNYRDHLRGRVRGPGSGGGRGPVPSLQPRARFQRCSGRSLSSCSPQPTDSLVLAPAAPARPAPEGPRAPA
assay_info: Activity against human urotensin-2 receptor expressed in NIH3T3 cells
Format: cell-based
# Efficacy per record follows
Provide only the numeric value, understood in %.

Known Efficacy results, listed for orientation:
molecule: COc1cccc(NC(=O)NC(CCN(C)C)c2ccc(Cl)cc2)c1 (stereo not drawn)
observable: Efficacy
readout_unit: %
readout_number: 146

molecule: COc1cccc(C(=O)NC(CCN(C)C)c2ccc(Cl)cc2)c1C (stereo not drawn)
observable: Efficacy
readout_unit: %
readout_number: 179

Please turn your attention to the following entry.
Suppose we examine the molecule Cc1ccccc1NC(=O)OC(CCN(C)C)c1ccc(Cl)cc1 (stereo not drawn) ; what Efficacy value has been reported?
176
